experiment: Inhibition of Hedgehog signaling in mouse Shh Light2 cells assessed as reduction in purmorphamine-induced Gli mediated transcriptional activity pretreated for 1 hr followed by purmorphamine addition measured after 48 hrs by luciferase reporter gene assay; assay type: cell-based; settings: Mus musculus, Shh Light2; read-out: IC50
# binning rule on IC50: bin 0: < 4 µM; bin 1: ≥ 4 µM and < 7 µM; bin 2: ≥ 7 µM

Observe how each entry below is paired with its result.
compound=c1ccc(OCCSc2nc3ccccc3[nH]2)cc1 classification="bin 2"
compound=Cc1cccc(C)c1OCCSc1nc2ccccc2[nH]1 classification="bin 0"
compound=COc1ccc(SCCSc2nc3ccccc3[nH]2)cc1 classification="bin 0"
compound=Clc1ccc(SCCCSc2nc3ccccc3[nH]2)cc1 classification="bin 2"
compound=Oc1ccc(OCCSc2nc3ccccc3[nH]2)cc1 classification="bin 2"
compound="CS(=O)(=O)c1ccc(C(=O)Nc2ccc(Cl)c(-c3ccccn3)c2)c(Cl)c1 [VISMODEGIB]" classification="bin 0"

Incoming: Lab note: sort Cc1cccc(SCCSc2nc3ccccc3[nH]2)c1 into the matching IC50 band.
Outgoing: bin 0

Incoming: Lab note: sort O=[N+]([O-])c1cccc(OCCSc2nc3ccccc3[nH]2)c1 into the matching IC50 band.
Outgoing: bin 1

Incoming: Lab note: sort c1ccc2cc(OCCSc3nc4ccccc4[nH]3)ccc2c1 into the matching IC50 band.
Outgoing: bin 2

Incoming: Lab note: sort Cc1cccc(OCCSc2nc3ccccc3[nH]2)c1 into the matching IC50 band.
Outgoing: bin 1

Incoming: Lab note: sort Cc1cccc(C)c1OCCCSc1nc2ccccc2[nH]1 into the matching IC50 band.
Outgoing: bin 1

Incoming: Lab note: sort Cc1cc(OCCSc2nc3ccccc3[nH]2)ccc1Cl into the matching IC50 band.
Outgoing: bin 2

Source listed as ChEMBL document CHEMBL4190359.
